// Stromelysin (Homo sapiens) pKi records
pKi: −log10 of the molar value.
MEASURED PARAMETER: pKi

1. CNC(=O)[C@H](Cc1c[nH]c2ccccc12)NC(=O)[C@H](CC(=O)NO)CC(C)C	< 6.00
2. C[C@H](NC(=O)[C@H](Cc1c[nH]c2ccccc12)NC(=O)[C@@H](CCC(=O)NO)NC(=O)OC(C)(C)C)c1ccccc1	< 5.00
3. CNC(=O)[C@H](Cc1c[nH]c2ccccc12)N(C)C(=O)C(CC(=O)NO)CC(C)C (single isomer, unassigned)	< 6.00
